Every entry's value here was drawn from PubChem BioAssay AID2060510.

Field: viability, T/C. Provide a value for each of the compounds that follow.
# Test system: 439559-082-T-J2-PDC spheroids viability;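 also: spheroids exposed to the agents for 7 days before readout; percent of luminescence signal in DMSO vehicle wells taken as 100% viability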
# assay.method.text: Anticancer human tumor 439559-082-T-J2-PDC patient-derived colon adenocarcinoma cell line growth inhibition [GQUAD]
# settings: second compound 0.0316 µM; first compound 0.000999 µM; active compounds read low
Numbers only, in %.

// known answers, use as guide
- compound: "CCc1c2c(nc3ccc(O)cc13)-c1cc3c(c(=O)n1C2)COC(=O)[C@]3(O)CC + Cc1cnc(CNC(=O)c2c(=O)c3ccc(N4CCCN(C)CC4)nc3n3c2sc2ccccc23)cn1"
  viability, T/C (%): 99.4
- compound: "Cn1ncnc1[C@H]1c2n[nH]c(=O)c3cc(F)cc(c23)N[C@@H]1c1ccc(F)cc1 + Cc1[nH]c2ccc(F)cc2c1-c1nc2c3cccnc3c3ncccc3c2[nH]1"
  viability, T/C (%): 105
- compound: "Cc1[nH]c2ccccc2c1CCNCc1ccc(/C=C/C(=O)NO)cc1 + CN(C)c1ccc(Nc2c3ccc(NC(=O)CCN4CCCC4)cc3nc3cc(NC(=O)CCN4CCCC4)ccc23)cc1"
  viability, T/C (%): 105
- compound: "Cc1[nH]c2ccccc2c1CCNCc1ccc(/C=C/C(=O)NO)cc1 + Cc1[nH]c2ccc(F)cc2c1-c1nc2c3cccnc3c3ncccc3c2[nH]1"
  viability, T/C (%): 97.3
- compound: "CC[C@@]1(O)C(=O)OCc2c1cc1n(c2=O)Cc2cc3c(CN(C)C)c(O)ccc3nc2-1 + CN(C)c1ccc(Nc2c3ccc(NC(=O)CCN4CCCC4)cc3nc3cc(NC(=O)CCN4CCCC4)ccc23)cc1"
  viability, T/C (%): 102

Give one value of viability, T/C per listed compound.
1. CCc1c2c(nc3ccc(O)cc13)-c1cc3c(c(=O)n1C2)COC(=O)[C@]3(O)CC + Cc1[nH]c2ccc(F)cc2c1-c1nc2c3cccnc3c3ncccc3c2[nH]1
2. CCc1c2c(nc3ccc(O)cc13)-c1cc3c(c(=O)n1C2)COC(=O)[C@]3(O)CC + CN(C)c1ccc(Nc2c3ccc(NC(=O)CCN4CCCC4)cc3nc3cc(NC(=O)CCN4CCCC4)ccc23)cc1
3. Cn1ncnc1[C@H]1c2n[nH]c(=O)c3cc(F)cc(c23)N[C@@H]1c1ccc(F)cc1 + CN(C)c1ccc(Nc2c3ccc(NC(=O)CCN4CCCC4)cc3nc3cc(NC(=O)CCN4CCCC4)ccc23)cc1
4. CC[C@@]1(O)C(=O)OCc2c1cc1n(c2=O)Cc2cc3c(CN(C)C)c(O)ccc3nc2-1 + Cc1[nH]c2ccc(F)cc2c1-c1nc2c3cccnc3c3ncccc3c2[nH]1
5. CC[C@@]1(O)C(=O)OCc2c1cc1n(c2=O)Cc2cc3c(CN(C)C)c(O)ccc3nc2-1 + Cc1cnc(CNC(=O)c2c(=O)c3ccc(N4CCCN(C)CC4)nc3n3c2sc2ccccc23)cn1
6. Cc1[nH]c2ccccc2c1CCNCc1ccc(/C=C/C(=O)NO)cc1 + Cc1cnc(CNC(=O)c2c(=O)c3ccc(N4CCCN(C)CC4)nc3n3c2sc2ccccc23)cn1

// result
[93.4, 99.7, 94.6, 99.4, 98.9, 101]

// query What measured viability, T/C goes with Cn1ncnc1[C@H]1c2n[nH]c(=O)c3cc(F)cc(c23)N[C@@H]1c1ccc(F)cc1 + Cc1cnc(CNC(=O)c2c(=O)c3ccc(N4CCCN(C)CC4)nc3n3c2sc2ccccc23)cn1 ?
// result 96.2
